For each of the molecules below, state its MIC.
- Test system: G(−) bacterial strains
- ASSAY_COMMENT: Dilution antimicrobial susceptibility tests (MIC, NCCLS agar dilution / broth dilution)
- Assay type: cell-based, Gram-negative organisms
- CONDITION: strain #25 Shigella dysenteriae; unit assumed
Answers are plain numbers, in µg/mL.

Provide MIC values for the following items, in order.
1. C[C@@H](O)C1C(=O)N2C(C(=O)O)=C(CN3CC[C@H](C(=O)NS(N)(=O)=O)C3)[C@H](C)C12 (stereo partly shown) [Compound 19]
2. C[C@@H](O)C1C(=O)N2C(C(=O)O)=C(CN3CC(NC(=N)N)C3)[C@H](C)C12 (stereo partly shown) [Compound 89]
3. C[C@@H](O)C1C(=O)N2C(C(=O)O)=C(CN3CC[C@H](NS(N)(=O)=O)C3)[C@H](C)C12 (stereo partly shown) [Compound 72]
4. C[C@@H](O)C1C(=O)N2C(C(=O)O)=C(CN3CC(N)C3)[C@H](C)C12 (stereo partly shown) [Compound 93]
5. C[C@@H](O)C1C(=O)N2C(C(=O)O)=C(CN3CC[C@H](N)C3)[C@H](C)C12 (stereo partly shown) [Compound 27]
6. C[C@@H](O)C1C(=O)N2C(C(=O)O)=C(CN3CC[C@H](NC(=O)C(F)(F)F)C3)[C@H](C)C12 (stereo partly shown) [Compound 37]
7. C[C@@H](O)C1C(=O)N2C(C(=O)O)=C(CN3CC[C@H](C(=O)NC(=N)N)C3)[C@H](C)C12 (stereo partly shown) [Compound 143]

[reply]
0.25
0.25
0.5
0.5
0.5
0.5
1

* * *

- System: G(−) bacterial strains
- ASSAY_COMMENT: Dilution antimicrobial susceptibility tests (MIC, NCCLS agar dilution / broth dilution)
- Assay type: cell-based, Gram-negative organisms
- CONDITION: strain #13 Escherichia coli; unit assumed
EXPERIMENTAL_ENDPOINT: MIC (µg/mL)
Give bare numbers, in µg/mL.

Provide MIC values for the following items, in order.
1. C[C@@H](O)C1C(=O)N2C(C(=O)O)=C(CN3CC[C@@H](NC(=N)N)C3)[C@H](C)C12 (stereo partly shown)
2. C[C@@H](O)C1C(=O)N2C(C(=O)O)=C(CN3CC[C@H](NS(N)(=O)=O)C3)[C@H](C)C12 (stereo partly shown)

[reply]
0.5
0.5

Provide MIC values for the following items, in order.
1. C[C@@H](O)[C@H]1C(=O)N2C(C(=O)O)=C(CN3CC(O)C(NC(=N)N)C3)[C@H](C)[C@H]12 (mixture of isomers)
2. C[C@@H](O)C1C(=O)N2C(C(=O)O)=C(CN3CC[C@H](NCC(N)=O)C3)[C@H](C)C12 (stereo partly shown)

[reply]
[0.13, 1]

* * *

- System: G(−) bacterial strains
- ASSAY_COMMENT: Dilution antimicrobial susceptibility tests (MIC, NCCLS agar dilution / broth dilution)
- Assay type: cell-based, Gram-negative organisms
- CONDITION: strain #3 Acinetobacter baumannii, Cf-R, Ci-R, Mp-I; unit assumed
EXPERIMENTAL_ENDPOINT: MIC
Please format your answer as a value with the unit trailing.

Provide MIC values for the following items, in order.
1. C[C@@H](O)C1C(=O)N2C(C(=O)O)=C(CN3CC[C@@H](NC(=N)N)C3)[C@H](C)C12 (stereo partly shown) [Compound 156]
2. C[C@@H](O)C1C(=O)N2C(C(=O)O)=C(CN3CC[C@H](NC(=O)C(F)(F)F)C3)[C@H](C)C12 (stereo partly shown) [Compound 37]
3. C[C@@H](O)C1C(=O)N2C(C(=O)O)=C(CN3CC[C@H](NC(=O)CNS(N)(=O)=O)C3)[C@H](C)C12 (stereo partly shown) [Compound 163]
4. C[C@@H](O)C1C(=O)N2C(C(=O)O)=C(CN3CC(NS(N)(=O)=O)C3)[C@H](C)C12 (stereo partly shown) [Compound 58]
5. C[C@@H](O)C1C(=O)N2C(C(=O)O)=C(CN3CC[C@H](NC(N)=O)C3)[C@H](C)C12 (stereo partly shown) [Compound 78]

[reply]
1. 4 µg/mL
2. 8 µg/mL
3. 8 µg/mL
4. 4 µg/mL
5. 4 µg/mL

Provide MIC values for the following items, in order.
1. C[C@@H](O)[C@H]1C(=O)N2C(C(=O)O)=C(CN3CC(O)C(NC(=N)N)C3)[C@H](C)[C@H]12 (mixture of isomers) [Compound 176]
2. CNC(=O)[C@H]1CCN(CC2=C(C(=O)O)N3C(=O)C([C@@H](C)O)C3[C@H]2C)C1 (stereo partly shown) [Compound 127]

[reply]
1. 1 µg/mL
2. 4 µg/mL
